Cited source: ChEMBL document CHEMBL4371077

target: UniProtKB Q9NXA8
Sequence (Q9NXA8 whole entry): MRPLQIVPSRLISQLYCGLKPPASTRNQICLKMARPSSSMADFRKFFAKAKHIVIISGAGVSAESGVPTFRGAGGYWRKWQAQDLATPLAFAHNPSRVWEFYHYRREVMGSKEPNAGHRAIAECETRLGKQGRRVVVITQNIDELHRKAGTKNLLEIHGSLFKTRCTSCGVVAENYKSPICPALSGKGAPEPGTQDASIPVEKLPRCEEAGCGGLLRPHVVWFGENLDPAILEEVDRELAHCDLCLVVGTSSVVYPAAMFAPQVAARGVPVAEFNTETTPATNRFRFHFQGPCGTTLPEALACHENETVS
assayNotes: Inhibition of desuccinylation activity of recombinant human full length N-terminal GST-tagged SIRT5 expressed in Escherichia coli using CH3CONH-AR-[Nepsilon-succinyl-lysine]-ST-CONH2 as substrate measured after 5 mins by HPLC analysis
pIC50: −log10 of the molar value.
observable: pIC50

CCCCCCCCCCCCNC(=O)CCCCC[C@@H]1NC(=O)[C@H](CCCNC(=N)N)NC(=O)CNC(=O)CCC(=O)NCC(=O)NCCCC[C@@H](C(N)=O)NC1=O: < 3.70

Okay, next one:
Noted for CCCCCCCCCCCCNC(=S)NCCCC[C@@H]1NC(=O)[C@H](CCCNC(=N)N)NC(=O)CNC(=O)CCC(=O)NCC(=O)NCCCC[C@@H](C(N)=O)NC1=O : its pIC50 reads < 3.82

---

target: NAD-dependent protein deacetylase sirtuin-1 (Homo sapiens, UniProt Q96EB6)
Sequence (Q96EB6 whole entry): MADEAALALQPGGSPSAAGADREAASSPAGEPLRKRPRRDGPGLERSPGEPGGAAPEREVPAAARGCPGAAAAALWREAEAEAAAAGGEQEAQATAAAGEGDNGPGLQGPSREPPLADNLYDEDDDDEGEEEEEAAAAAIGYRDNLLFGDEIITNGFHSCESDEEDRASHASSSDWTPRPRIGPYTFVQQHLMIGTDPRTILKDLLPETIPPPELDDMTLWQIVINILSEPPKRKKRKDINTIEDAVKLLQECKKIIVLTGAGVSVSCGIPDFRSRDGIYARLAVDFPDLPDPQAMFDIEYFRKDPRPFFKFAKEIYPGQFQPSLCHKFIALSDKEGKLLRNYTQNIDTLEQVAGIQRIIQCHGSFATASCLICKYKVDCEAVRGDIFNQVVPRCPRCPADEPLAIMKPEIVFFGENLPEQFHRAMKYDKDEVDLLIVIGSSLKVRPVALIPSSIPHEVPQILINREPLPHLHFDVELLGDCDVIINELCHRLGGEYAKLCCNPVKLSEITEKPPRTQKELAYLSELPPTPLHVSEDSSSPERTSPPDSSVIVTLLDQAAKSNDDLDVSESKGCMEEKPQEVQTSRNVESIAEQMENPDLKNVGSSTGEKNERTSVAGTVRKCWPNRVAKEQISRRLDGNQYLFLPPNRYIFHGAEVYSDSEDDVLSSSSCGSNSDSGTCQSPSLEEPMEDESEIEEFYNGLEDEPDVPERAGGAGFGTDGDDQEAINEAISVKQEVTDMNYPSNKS
assayNotes: Inhibition of recombinant human SIRT1 deacetylase activity using H2N-HK-[Nepsilon-acetyl-lysine]-LM-COOH as substrate measured after 10 mins by HPLC analysis
pIC50: −log10 of the molar value.
observable: pIC50

P = CCCCCCCCCCCCNC(=O)CCCCC[C@@H]1NC(=O)[C@H](CCCNC(=N)N)NC(=O)CNC(=O)CCC(=O)NCC(=O)NCCCC[C@@H](C(N)=O)NC1=O
Q = CCCCCCCCCCCCNC(=S)NCCCC[C@@H]1NC(=O)[C@H](CCCNC(=N)N)NC(=O)CNC(=O)CCC(=O)NCC(=O)NCCCC[C@@H](C(N)=O)NC1=O
(Q) Lab note: check whether P or Q has the lower measured pIC50. Answer format: the label of the selected item.
(A) P
(P: 5.37, Q: 5.74)

---

target: NAD-dependent protein deacetylase sirtuin-3, mitochondrial (Homo sapiens, UniProt Q9NTG7)
Sequence (Q9NTG7 whole entry, the tested form may be a part): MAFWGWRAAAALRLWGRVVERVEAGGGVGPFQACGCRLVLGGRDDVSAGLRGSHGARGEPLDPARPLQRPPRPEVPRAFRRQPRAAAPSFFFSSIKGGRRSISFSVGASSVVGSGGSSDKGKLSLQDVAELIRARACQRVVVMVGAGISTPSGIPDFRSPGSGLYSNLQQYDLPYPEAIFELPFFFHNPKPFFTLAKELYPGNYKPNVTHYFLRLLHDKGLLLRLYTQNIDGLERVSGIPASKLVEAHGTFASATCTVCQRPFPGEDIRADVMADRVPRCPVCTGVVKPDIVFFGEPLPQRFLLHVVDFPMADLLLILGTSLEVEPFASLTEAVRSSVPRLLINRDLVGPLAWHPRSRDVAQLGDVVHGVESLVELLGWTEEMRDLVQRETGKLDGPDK
assayNotes: Inhibition of deacetylation activity of recombinant human N-terminal His6-tagged SIRT3 (101 to 399 residues) expressed in Escherichia coli using H2N-HK-[Nepsilon-acetyl-lysine]-LM-COOH as substrate measured after 10 mins by HPLC analysis
observable: IC50 (nM)

I = CCCCCCCCCCCCNC(=S)NCCCC[C@@H]1NC(=O)[C@H](CCCNC(=N)N)NC(=O)CNC(=O)CCC(=O)NCC(=O)NCCCC[C@@H](C(N)=O)NC1=O
II = CCCCCCCCCCCCNC(=O)CCCCC[C@@H]1NC(=O)[C@H](CCCNC(=N)N)NC(=O)CNC(=O)CCC(=O)NCC(=O)NCCCC[C@@H](C(N)=O)NC1=O
(Q) Please indicate which has the smaller reported IC50: I , or II . I would appreciate it if you answered with the label of your choice.
(A) I

---

target: NAD-dependent protein deacylase sirtuin-6 (Homo sapiens)
Sequence (Q8N6T7 whole entry): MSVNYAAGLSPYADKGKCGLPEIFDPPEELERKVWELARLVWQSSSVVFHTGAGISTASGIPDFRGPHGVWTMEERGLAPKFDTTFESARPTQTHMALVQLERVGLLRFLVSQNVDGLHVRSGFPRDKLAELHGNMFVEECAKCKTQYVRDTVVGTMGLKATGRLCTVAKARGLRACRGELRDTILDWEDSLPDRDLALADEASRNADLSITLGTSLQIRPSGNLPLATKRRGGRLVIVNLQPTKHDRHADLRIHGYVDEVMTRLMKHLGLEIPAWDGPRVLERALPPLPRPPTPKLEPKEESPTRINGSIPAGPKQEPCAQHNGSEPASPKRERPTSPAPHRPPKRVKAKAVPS
assayNotes: Inhibition of demyristoylation activity of recombinant human full length N-terminal His6-tagged SIRT6 expressed in Escherichia coli using H2N-EALPK-[Nepsilon-myristoyl-lysine]-TGGPQ-CONH2 as substrate measured after 12 mins by HPLC analysis
observable: IC50 (µM)

CCCCCCCCCCCCNC(=S)NCCCC[C@@H]1NC(=O)[C@H](CCCNC(=N)N)NC(=O)CNC(=O)CCC(=O)NCC(=O)NCCCC[C@@H](C(N)=O)NC1=O: 7.9
CCCCCCCCCCCCNC(=O)CCCCC[C@@H]1NC(=O)[C@H](CCCNC(=N)N)NC(=O)CNC(=O)CCC(=O)NCC(=O)NCCCC[C@@H](C(N)=O)NC1=O: 11.2
